Tested on: OVCAR-4
EXPERIMENT DESCRIPTION: NCI tumour cell line growth inhibition, 48 h
Activity calls are given as the source filed them. Cut-off read from the data, not from the text of the source: active = GI50 up to about 1.1 µM and inactive = higher.
Choose the fitting class; nothing outside active, inactive is accepted.

COMPOUND | GROUP LABEL
CC(N)CC(=O)O (stereo not given) | inactive
O=S1(=O)CCN(c2ccccc2CC(c2c[nH]c3ccccc23)c2c[nH]c3ccccc23)CC1 | inactive
CCCSc1nc(COC(=O)NC)c(COC(=O)NC)n1C | inactive
C=CC(=O)N1C/C(=C\c2ccc([N+](=O)[O-])cc2)C(=O)/C(=C/c2ccc([N+](=O)[O-])cc2)C1 | active
CN(C(=O)Cc1cc(Cl)c(Cl)cc1NC(=O)CCCN)[C@H]1CCCC[C@@H]1N1CCCC1 | inactive
CCOP(=O)(OCC)C(Cc1c[nH]c2ccccc12)C(=O)O (stereo not given) | inactive

Data request: Field: outcome | Entry: `CCCCCCNC(=O)C1=C(C)NC(C)=C(C(=O)NCCCCCC)C1`
Data returned: inactive
